test system: 186277-243-T-J2-PDC complex spheroid viability; test: Anticancer human tumor 186277-243-T-J2-PDC patient-derived colon adenocarcinoma cell line growth inhibition; details: second compound 10 µM; first compound 10 µM; active means viability on the fitted dose curve at most 10% of control; inactive means the rest;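 further: 7 day exposure to compounds; 100% = DMSO vehicle control viability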
Output constraint: value belongs to yes (1) = active, no (0) = inactive

A selection of reference data follows.
CC1COCCN1c1cc(C2(S(C)(=N)=O)CC2)nc(-c2ccnc3[nH]ccc23)n1 (stereo not drawn) + NC1CC1c1ccc(-c2cccc(O)c2)cc1 | yes (1)
CC1(C)CCC(CN2CCN(c3ccc(C(=O)NS(=O)(=O)c4ccc(NCC5CCOCC5)c([N+](=O)[O-])c4)c(Oc4cnc5[nH]ccc5c4)c3)CC2)=C(c2ccc(Cl)cc2)C1 + NC1CC1c1ccc(-c2cccc(O)c2)cc1 | yes (1)

Query: Hi team, can someone confirm the assay call for O=C(c1cc(Cc2n[nH]c(=O)c3ccccc23)ccc1F)N1CCN(C(=O)C2CC2)CC1 + NC1CCC(NC2CC2c2ccccc2)CC1 ?
Response: no (0)
